So I've got a bunch of molecules here, and I need their isobaric coefficient of expansion values.
Assay: isobaric coefficient of expansion
Conditions: 338.15 K; 50000 kPa; Liquid; Microcalorimeter

Worked examples, 4 molecules total:
CCCC[n+]1cccc(C)c1.F[B-](F)(F)F [1-butyl-3-methylpyridinium tetrafluoroborate] :: 0.000529 1/K
CCn1cc[n+](C)c1.F[B-](F)(F)F [1-ethyl-3-methylimidazolium tetrafluoroborate] :: 0.000525 1/K
CCCCCCn1cc[n+](C)c1.F[B-](F)(F)F [1-hexyl-3-methylimidazolium tetrafluoroborate] :: 0.000528 1/K
CCCCCC[n+]1ccn(C)c1.O=S(=O)([N-]S(=O)(=O)C(F)(F)F)C(F)(F)F :: 0.000567 1/K

Each of the following entries comes with a recorded value; kindly state isobaric coefficient of expansion for each.
1. CCn1cc[n+](C)c1.O=S(=O)([N-]S(=O)(=O)C(F)(F)F)C(F)(F)F
2. CCCCCCCC[n+]1ccn(C)c1.F[B-](F)(F)F [1-methyl-3-octylimidazolium tetrafluoroborate]

Response:
["0.000569 1/K", "0.000528 1/K"]
